pIC50: −log10 of the molar value.
Provide the reported pIC50 of each item.

*Q* Notebook entry, MMP-3 (Stromelysin-1) (Homo sapiens) assay: pIC50 of CN(C)c1cccc2c(S(=O)(=O)N3CCN(S(=O)(=O)c4cc(F)c(Oc5ccc(Cl)cc5)c(F)c4)[C@@H](C(=O)NO)C3)cccc12 = ?
*A* 4.70 to 6.00

*Q* Under MMP-3 (Stromelysin-1) (Homo sapiens): pIC50 value of O=C(O)CN1CCN(S(=O)(=O)c2cc(F)c(Oc3ccc(Cl)cc3)c(F)c2)[C@@H](C(=O)NO)C1 ?
*A* 4.70 to 6.00

*Q* Reported pIC50 for MMP-3 (Stromelysin-1) (Homo sapiens), given COCCOC(=O)N1CCN(S(=O)(=O)c2cc(F)c(Oc3ccc(Cl)cc3)c(F)c2)[C@@H](C(=O)NO)C1 ?
*A* 6.00 to 7.30

*Q* Enter reported pIC50 observed with MMP-3 (Stromelysin-1) (Homo sapiens) for O=C(NO)[C@H]1CN(C(=O)OCc2ccccc2)CCN1S(=O)(=O)c1cc(F)c(Oc2ccc(Cl)cc2)c(F)c1
Sequence (P08254 100-477, species assumed): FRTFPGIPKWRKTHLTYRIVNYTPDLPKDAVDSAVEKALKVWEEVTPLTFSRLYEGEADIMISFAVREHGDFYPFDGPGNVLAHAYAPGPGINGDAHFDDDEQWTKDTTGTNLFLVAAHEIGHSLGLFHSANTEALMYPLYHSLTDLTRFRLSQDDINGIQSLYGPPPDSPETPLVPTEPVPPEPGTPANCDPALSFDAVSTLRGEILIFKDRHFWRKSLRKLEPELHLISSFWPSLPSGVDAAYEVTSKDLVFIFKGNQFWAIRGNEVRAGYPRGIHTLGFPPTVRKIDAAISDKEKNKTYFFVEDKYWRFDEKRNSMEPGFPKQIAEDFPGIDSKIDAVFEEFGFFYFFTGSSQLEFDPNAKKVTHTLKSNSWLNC
*A* 6.00 to 7.30

*Q* Give recorded pIC50 with MMP-3 (Stromelysin-1) (Homo sapiens) for the following compound: COCCOC(=O)N1CCN(S(=O)(=O)c2ccc(Oc3ccc(F)cc3)cc2)[C@@H](C(=O)NO)C1
*A* > 7.30

*Q* Hi! What's the reported pIC50 for CN(C)c1ccc2ccc(S(=O)(=O)N3CCN(S(=O)(=O)c4cc(F)c(Oc5ccc(Cl)cc5)c(F)c4)[C@@H](C(=O)NO)C3)cc2c1 on MMP-3 (Stromelysin-1) (Homo sapiens)?
*A* 6.00 to 7.30

*Q* Given the entry O=C(NO)[C@H]1CN(C(=O)Cc2cccnc2)CCN1S(=O)(=O)c1cc(F)c(Oc2ccc(Cl)cc2)c(F)c1 , what pIC50 was observed with MMP-3 (Stromelysin-1) (Homo sapiens)?
*A* 6.00 to 7.30

###

EXPERIMENTAL TARGET: MMP-2 (72 kDa gelatinase, gelatinase A) (Homo sapiens, UniProt P08253)
Sequence (P08253 110-660): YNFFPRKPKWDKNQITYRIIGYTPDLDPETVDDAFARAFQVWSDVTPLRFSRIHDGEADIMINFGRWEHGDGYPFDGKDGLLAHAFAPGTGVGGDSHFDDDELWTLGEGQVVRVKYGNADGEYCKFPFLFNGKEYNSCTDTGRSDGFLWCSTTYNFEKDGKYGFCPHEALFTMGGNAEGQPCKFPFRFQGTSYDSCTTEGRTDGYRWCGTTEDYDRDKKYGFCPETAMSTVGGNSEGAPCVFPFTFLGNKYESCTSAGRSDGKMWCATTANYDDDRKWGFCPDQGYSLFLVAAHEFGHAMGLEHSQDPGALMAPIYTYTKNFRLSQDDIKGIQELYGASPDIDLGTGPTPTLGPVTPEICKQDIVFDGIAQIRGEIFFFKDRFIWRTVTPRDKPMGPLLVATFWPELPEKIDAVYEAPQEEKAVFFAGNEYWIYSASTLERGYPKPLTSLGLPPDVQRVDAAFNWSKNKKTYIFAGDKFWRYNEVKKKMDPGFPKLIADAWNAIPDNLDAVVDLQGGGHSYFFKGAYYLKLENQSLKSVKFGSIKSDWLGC
MEASUREMENT TYPE: IC50

*Q* Sample CN1CCN(C(=O)N2CCN(S(=O)(=O)c3cc(F)c(Oc4ccc(Cl)cc4)c(F)c3)[C@@H](C(=O)NO)C2)CC1 — what was its IC50?
*A* < 50 nM

*Q* Need IC50, item O=C(NO)[C@H]1CN(C(=O)N2CCOCC2)CCN1S(=O)(=O)c1ccc(Oc2ccc(F)cc2)cc1
*A* < 50 nM

*Q* Query (compound): O=C(NO)[C@H]1CN(S(=O)(=O)CCN2CCCCC2)CCN1S(=O)(=O)c1cc(F)c(Oc2ccc(Cl)cc2)c(F)c1 ; field requested: IC50
*A* < 50 nM

*Q* Can you look up the measured IC50 of O=C(NO)[C@H]1CN(C(=O)N2CCOCC2)CCN1S(=O)(=O)c1ccc(-c2cccc(F)c2)nc1 for me?
*A* < 50 nM

*Q* Any idea what IC50 was measured for CN1CCN(S(=O)(=O)c2cc(F)c(Oc3ccc(F)cc3)c(F)c2)[C@@H](C(=O)NO)C1 ?
*A* < 50 nM

*Q* Look up IC50: O=C(NO)[C@H]1CN(C(=O)OCCN2CCCCC2)CCN1S(=O)(=O)c1cc(F)c(Oc2ccc(Cl)cc2)c(F)c1
*A* < 50 nM

*Q* Which IC50 value is on record for O=C(NO)[C@H]1CN(S(=O)(=O)Cc2cc(Cl)cc(Cl)c2)CCN1S(=O)(=O)c1cc(F)c(Oc2ccc(Cl)cc2)c(F)c1 ?
*A* 1000 to 20000 nM

*Q* # IC50 lookup, item CS(=O)(=O)N1CCN(S(=O)(=O)c2cc(F)c(Oc3ccc(Cl)cc3)c(F)c2)[C@@H](C(=O)NO)C1
*A* < 50 nM

*Q* Which IC50 reading was recorded for the compound O=C(NO)[C@H]1CN(S(=O)(=O)CCN2CCOCC2)CCN1S(=O)(=O)c1cc(F)c(Oc2ccc(Cl)cc2)c(F)c1 ?
*A* 50 to 1000 nM

*Q* Record request: IC50 value, item COCCOC(=O)N1CCN(S(=O)(=O)c2ccc(Oc3ccc(C#N)cc3)c(F)c2)[C@@H](C(=O)NO)C1
*A* < 50 nM

*Q* What measured IC50 goes with CN(C)CCS(=O)(=O)N1CCN(S(=O)(=O)c2cc(F)c(Oc3ccc(Cl)cc3)c(F)c2)[C@@H](C(=O)NO)C1 ?
*A* < 50 nM

*Q* Look at this compound and give its reported IC50. O=C(CCl)NC(=O)N1CCN(S(=O)(=O)c2cc(F)c(Oc3ccc(Cl)cc3)c(F)c2)[C@@H](C(=O)NO)C1
*A* < 50 nM

*Q* For the compound CN(C)c1ccc2c(S(=O)(=O)N3CCN(S(=O)(=O)c4cc(F)c(Oc5ccc(Cl)cc5)c(F)c4)[C@@H](C(=O)NO)C3)cccc2c1 , what IC50 is on record?
*A* < 50 nM

###

pIC50: −log10 of the molar value.
The following are reported pIC50 results, target or system MMP-3 (Stromelysin-1) (Homo sapiens, UniProt P08254).

*Q* Any idea what its pIC50 is? The compound is O=C(NO)[C@H]1CN(C(=O)c2cc(F)c(O)c(F)c2)CCN1S(=O)(=O)c1cc(F)c(Oc2ccc(Cl)cc2)c(F)c1
*A* > 7.30

*Q* State the recorded pIC50 for this entry: O=C(NO)[C@H]1CN(C(=O)CN2CCOCC2)CCN1S(=O)(=O)c1cc(F)c(Oc2ccc(Cl)cc2)c(F)c1
*A* 6.00 to 7.30

*Q* So what does the record say about pIC50 for O=C(NO)[C@H]1CN(S(=O)(=O)NC(=O)N2CCCCC2)CCN1S(=O)(=O)c1cc(F)c(Oc2ccc(Cl)cc2)c(F)c1 ?
*A* > 7.30

*Q* Tell me the measured pIC50 of COCCOC(=O)N1CCN(S(=O)(=O)c2ccc(Oc3ccc(Cl)cc3)c(F)c2)[C@@H](C(=O)NO)C1 , please.
*A* > 7.30

*Q* So what's the measured pIC50 for this one? O=C(NO)[C@H]1CN(S(=O)(=O)c2cccnc2O)CCN1S(=O)(=O)c1cc(F)c(Oc2ccc(Cl)cc2)c(F)c1
*A* 6.00 to 7.30

*Q* What value of pIC50 has been reported for the following compound? CCOC(=O)N1CCN(CC(=O)N2CCN(S(=O)(=O)c3cc(F)c(Oc4ccc(Cl)cc4)c(F)c3)[C@@H](C(=O)NO)C2)CC1
*A* 4.70 to 6.00

*Q* Could you tell me which pIC50 is on file for CS(=O)(=O)N1CCN(S(=O)(=O)c2cc(F)c(Oc3ccc(Cl)cc3)c(F)c2)[C@@H](C(=O)NO)C1 ?
*A* 6.00 to 7.30

###

EXPERIMENTAL TARGET: MMP-3 (Stromelysin-1) (Homo sapiens)
pIC50: −log10 of the molar value.
MEASUREMENT TYPE: pIC50

*Q* Given CN1CCN(C(=O)NS(=O)(=O)N2CCN(S(=O)(=O)c3cc(F)c(Oc4ccc(Cl)cc4)c(F)c3)[C@@H](C(=O)NO)C2)CC1 [Entry 39] , state its recorded pIC50.
*A* > 7.30

*Q* Could you tell me which pIC50 is on file for O=C(NO)[C@H]1CN(C(=O)C(=O)N2CCCCC2)CCN1S(=O)(=O)c1cc(F)c(Oc2ccc(Cl)cc2)c(F)c1 [Entry 35] ?
*A* 6.00 to 7.30

*Q* Which measured pIC50 value corresponds to COCCOC(=O)N1CCN(S(=O)(=O)c2ccc(Oc3ccc(F)cc3)nc2)[C@@H](C(=O)NO)C1 [Entry 65] ?
*A* > 7.30

*Q* Dear colleague, I am looking for the recorded pIC50 of the following molecule: O=C(NO)[C@H]1CN(C(=O)N2CCOCC2)CCN1S(=O)(=O)c1ccc(Oc2ccc(F)cc2)cc1 [Entry 2]
*A* > 7.30

*Q* Give its pIC50 value. Item: O=C(NO)[C@H]1CN(C(=O)OCCN2CCCC2)CCN1S(=O)(=O)c1cc(F)c(Oc2ccc(Cl)cc2)c(F)c1 [Entry 18]
*A* 6.00 to 7.30

*Q* Request the reported pIC50 associated with O=C(NO)[C@H]1CN(C(=O)c2ccc(-c3ccccc3)cc2)CCN1S(=O)(=O)c1cc(F)c(Oc2ccc(Cl)cc2)c(F)c1 [Entry 51]
*A* 4.70 to 6.00

*Q* State the recorded pIC50 for this entry: CN(C)S(=O)(=O)N1CCN(S(=O)(=O)c2cc(F)c(Oc3ccc(Cl)cc3)c(F)c2)[C@@H](C(=O)NO)C1 [Entry 36]
*A* 6.00 to 7.30
